- Target entity: T1, rat serum albumin (rat)
- T1 chain: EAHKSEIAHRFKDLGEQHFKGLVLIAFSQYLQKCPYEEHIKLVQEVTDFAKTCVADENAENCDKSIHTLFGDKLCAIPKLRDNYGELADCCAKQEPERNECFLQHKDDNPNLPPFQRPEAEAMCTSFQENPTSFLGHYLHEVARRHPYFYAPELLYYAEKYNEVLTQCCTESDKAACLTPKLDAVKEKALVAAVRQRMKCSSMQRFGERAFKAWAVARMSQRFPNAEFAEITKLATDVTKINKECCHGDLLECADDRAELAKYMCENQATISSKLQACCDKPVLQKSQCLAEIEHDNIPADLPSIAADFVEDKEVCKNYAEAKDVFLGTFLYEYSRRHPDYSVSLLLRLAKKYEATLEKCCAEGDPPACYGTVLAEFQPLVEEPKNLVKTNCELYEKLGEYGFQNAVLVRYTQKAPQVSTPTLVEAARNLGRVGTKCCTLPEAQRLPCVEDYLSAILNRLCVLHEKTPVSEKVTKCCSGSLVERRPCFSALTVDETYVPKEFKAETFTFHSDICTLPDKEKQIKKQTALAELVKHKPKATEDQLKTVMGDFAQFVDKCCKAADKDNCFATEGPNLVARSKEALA
- Experiment notes: SPR Biacore T200, fusion protein captured by anti-VHH antibody, albumin as analyte
- Procedure: Coupling of an anti-VHH antibody (MonoRab™ Rabbit Anti-Camelid VHH Cocktail, Genescript, Cat No. A02014) to an S series CM5 sensor chip (GE, Cat No. 29-1049-88) was performed using an amino coupling kit (GE, Cat No. BR-1000-50). The antibody was diluted to 10 μg/mL with 10 mM sodium acetate (pH 4.5) (GE, Cat No. BR-1003-50). […]

Binder	Unit info	kon
0064 (other, Single-chain fusion: anti-HSA VHH, linker, relaxin-2 B chain, linker, relaxin-2 A chain; also called fusion protein 0064) EVQLLESGGGLVQPGGSLRLSCAASGNTYLTSCMGWFRQAPGKEREGVSSIYTVGGSTFYTNSVKGRFTISRDNSKNTLYLQMNSLQPEDTAVYYCAAGSPARCRLRDPTTFDYWGQGTLVTVSSGGGGQGGGGQGGGGQGGGGQGGGGQSWMEEVIKLCGRELVRAQIAICGMSTWSGGGSGGSGGGQLYSALANKCCHVGCTKRSLARFC	M⁻¹ s⁻¹	98900
